Values were extracted from ChEMBL document CHEMBL1201862.

- System: NCI-H522
- experiment_description: NCI tumour cell line growth inhibition, 48 h
Active and inactive are the calls of the source. Rule as the data show it: active = GI50 up to about 1.1 µM and inactive = higher.
GI50: recorded values

compound | GI50
O=C(NCc1ccc(Cl)cc1)c1cc2sccc2nc1C(F)(F)F | 29.7 µM (inactive)
O=C1N(c2ccccc2)C2(c3ccccc3)CC3CCCC13S2 (stereo unspecified) | 23.7 µM (inactive)
CN(C)c1n/c(=N/c2cccc(Cl)c2)ss1 | 1.16 µM (inactive)
Cc1c(OCc2ccccc2)c(=O)ccn1CCc1c[nH]c2ccccc12 | 21.3 µM (inactive)
CCc1ccc2c(c1)/C(=C1/Nc3ccccc3C1=O)C(=O)N2 | 19.5 µM (inactive)
CN1CCN([C@H]2C[C@H]3[C@@H]4CC=C5C[C@@H](N6CCCC6)CC[C@]5(C)[C@H]4CC[C@]3(C)[C@H]2O)CC1 | > 100 µM (inactive)
CC[C@H]1C=CCC[C@@]2(C[C@@H]3CC[C@H]4[C@H](C(=O)OCCCCCCCCCCCCCCCC(=O)N(CCCN)C[C@@H](O)CCN)[C@]5(CCC[C@@H](C)O5)NC(=[N+]34)N2)O1 | 1.04 µM (active)
C/C(=C/c1ccccc1)CN(C(=O)/C=C\Sc1ccccc1)C(C)(C)C | 10.1 µM (inactive)
CCNc1ccc2c(c1)Cc1ccccc1-2 | 32.7 µM (inactive)
COc1cccc2c1C(=O)c1c(O)c3c(c(O)c1C2=O)C[C@@](O)(/C(C)=N\O)C[C@@H]3OC1CC(N)C(O)C(C)O1 (stereo partly specified) | 0.315 µM (active)
CSCCC(C(=O)O)N(C)C (stereo unspecified) | > 100 µM (inactive)

----------
- Tested on: DMS-273
- experiment_description: NCI tumour cell line growth inhibition, 48 h
Calls of active or inactive are those of the source. No stated cut-off is given here; in the data, active = GI50 up to about 1.1 µM and inactive = higher.
reported_metric: GI50

compound | reported_metric | result
Cn1cnc([N+](=O)[O-])c1Sc1nc2cccnc2[nH]1 | GI50 | 1.61 µM (inactive)
Cc1nn2c(=O)n(-c3cccc(-n4nnc5c(-c6ccccc6)c(C)nn5c4=O)c3C)nnc2c1-c1ccccc1 | GI50 | 66.8 µM (inactive)
Cc1cc2c(=O)cc(-c3cccs3)oc2c(C(=O)O)c1C | GI50 | > 100 µM (inactive)
N/C(=N\O)N/N=C\c1cc([N+](=O)[O-])cc([N+](=O)[O-])c1O | GI50 | 2.72 µM (inactive)
N#C/C(=C\c1cccc(O)c1O)C(N)=O | GI50 | 57.3 µM (inactive)
COc1cc(Nc2nc3ccc(C(F)(F)F)cc3nc2-c2ccccc2)cc(OC)c1OC | GI50 | 12 µM (inactive)
C=C1C(=O)OC2C/C(C)=C/CC/C(C)=C/CCC3(COC(C)=O)OC3CC12 (configuration not stated) | GI50 | 3.87 µM (inactive)
COc1ccc(C=O)c(N(C)C(=O)C(C)(C)C)c1 | GI50 | > 100 µM (inactive)
COC(=O)C1CCC(=O)N1/C(C)=N/NC(=O)Nc1ccc(Cl)c(Cl)c1 (configuration not stated) | GI50 | > 100 µM (inactive)
CC1=NN(C(=O)CC(=O)Nc2ccccc2)C(=O)C1/N=N/c1ccc(S(N)(=O)=O)cc1 (configuration not stated) | GI50 | 63.5 µM (inactive)
C=C(C)C1CCC2(C)CC1c1c(c(C)cc3c1[nH]c1ccccc13)O2 (configuration not stated) | GI50 | > 25 µM (inactive)
C=C1c2[nH]c3c([N+](=O)[O-])c(OC)ccc3c2CCN1C(C)=O | GI50 | > 100 µM (inactive)
CN(C)c1n/c(=N/c2cccc(Cl)c2)ss1 | GI50 | 13 µM (inactive)
C[N+](C)(C)CC1CCCC/C1=N\OC(=O)c1ccccc1 (configuration not stated) | GI50 | > 100 µM (inactive)
O=C1c2nc3n(c2C(=O)c2c1nc1n2CCC1)CCC3 | GI50 | 3.3 µM (inactive)
C[C@@H](c1ccccc1)N(CC#N)C1CCC[C@H]1O (some centres not stated) | GI50 | > 100 µM (inactive)
C/C=C/C=C/CCCCCCCCCCCCC[C@]1(OC)C=C[C@@H](CC(=O)OC)OO1 | GI50 | 1.57 µM (inactive)

----------
- Tested on: UACC-257
- experiment_description: NCI tumour cell line growth inhibition, 48 h
Calls of active or inactive are those of the source. Cut-off read from the data, not from the text of the source: active = GI50 up to about 1.1 µM and inactive = higher.
Each entry below lists one item and its recorded GI50 value.

substance_smiles | GI50
COC(=O)C1=CS/C(=C2\S[C@@H]3[C@H](S2)[C@H]2C=C[C@@H]3C2)S1 | 66.5 µM (inactive)
O=S1(=O)c2cnccc2N=C(NCc2ccccc2)N1c1ccccc1 | > 100 µM (inactive)
O=c1[nH]c(=O)n(COCc2ccccc2)c2ccc(Br)cc12 | > 100 µM (inactive)
CN(C)Cc1cc(C=O)cc(CN(C)C)c1O | > 100 µM (inactive)

----------
- Tested on: LOX IMVI
- experiment_description: NCI tumour cell line growth inhibition, 48 h
The source made the active and inactive calls. No stated cut-off is given here; in the data, active = GI50 up to about 1.1 µM and inactive = higher.
Here, each record is paired with measured GI50 data.
reported_metric: GI50

compound | result
COC(=O)/C1=C/C2CC(/C=C(/c3ccccc3)C(=O)O1)C2 | 17.5 µM (inactive)
COc1cc(OCc2nc3cc(C(F)(F)F)ccc3nc2-c2ccccc2)cc(OC)c1OC | > 100 µM (inactive)
C=CCCCCOC1C=CC(OC(C)=O)C(COC(C)=O)O1 (centres undefined) | > 100 µM (inactive)
O=C(NNC(=S)Nc1ccc(Cl)cc1)C12CC3CC(CC(C3)C1)C2 | 2.53 µM (inactive)
CC(=O)N1CCn2c1nc1cc(Cl)ccc12 | 39.2 µM (inactive)
COc1ccc(OC)c(NC(=O)C(=O)Nn2c(S)nc3ccccc3c2=O)c1 | > 100 µM (inactive)
CC(=O)OCC1OC(N2C(c3ccccc3)=CC(c3cccs3)C(C#N)=C2S)C(OC(C)=O)C(OC(C)=O)C1OC(C)=O (centres undefined) | > 100 µM (inactive)
COc1ccc2nc3cc(Cl)ccc3c(NCCC[N+](C)(C)CCCCCCCCCCCCCCCC[N+](C)(C)CCCNc3c4ccc(Cl)cc4nc4ccc(OC)cc34)c2c1 | 1.96 µM (inactive)
COc1ccc(-c2cc(=O)c3c(OC)cccc3o2)c(OC)c1OC | > 100 µM (inactive)
O=CC1C(Cl)=Nc2nc3ccccc3n2C1c1ccccc1 (centres undefined) | 15.5 µM (inactive)
COc1nc(=O)cc(N)n1C1OC(CO)C(O)C1O (centres undefined) | > 100 µM (inactive)
Nc1ccc(C(=O)NN2C(=O)C(Cl)C2c2ccccc2Cl)cc1 (centres undefined) | 1.41 µM (inactive)
Cc1nc(C)c(C(=O)NNC(N)=S)cc1C(=O)NNC(N)=S | > 100 µM (inactive)
O=c1[nH]c2nc3ccccc3c(=O)n2/c1=C/c1cccs1 | > 100 µM (inactive)
CCOC(=O)c1c(N2CCCC2)[nH]c(=O)c(C(c2ccc(Cl)c([N+](=O)[O-])c2)c2c(O)c(C(=O)OCC)c(N3CCCC3)[nH]c2=O)c1O | 19.3 µM (inactive)
CC(CCc1nc2ccccc2s1)(c1ccc(O)cc1)c1ccc(O)cc1 | 16 µM (inactive)
CCSC1(SCC)CCN(/C=N/C(C)(C)C)C1 | 52.6 µM (inactive)
Cc1nc2c(n1C(C)(C)C)C(=O)c1ccccc1C2=O | 41.5 µM (inactive)
CC(O)(C(=O)N(O)c1ccc(Cl)cc1)c1ccc(Cl)cc1 (centres undefined) | 24.4 µM (inactive)
COc1c(I)c(OC)c2c(c1I)O[C@@H]1OCC[C@H]21 | 32.4 µM (inactive)
COC(=O)c1ccc(NCC2=C(Br)C(=O)C=CC2=O)cc1Cl | 14.9 µM (inactive)
Cc1nc2ccc(Br)cc2c(=O)n1-c1nnc(C(C)(C)C)s1 | > 10 µM (inactive)
N#C/C(=C/c1cccc(Oc2ccccc2)c1)c1ccccc1 | > 100 µM (inactive)
O=S(=O)(O)C(Cc1nc2ccccc2[nH]1)S(=O)(=O)OCCC1S(=O)(=O)OCCOS1(=O)=O (centres undefined) | > 100 µM (inactive)
O=C1CSC(c2ccccc2O)N1c1nc2cc3sc(N4C(=O)CSC4c4ccccc4O)nc3cc2s1 (centres undefined) | 24 µM (inactive)
CC(C)N(C(=O)C12C3C4C1C1C2C3C41C(=O)C(C)(C)C)C(C)C (centres undefined) | > 100 µM (inactive)
CSc1nc2ccccc2c(=O)n1/N=C1\C(=O)N(CN2CCOCC2)c2ccc(Cl)cc21 | 15.2 µM (inactive)
COC(OC)c1cccc2c1C1(O)CCC3(CC21)OCCCCO3 (centres undefined) | > 100 µM (inactive)
C1=C(c2ccccc2)Nc2nnnn2C1c1ccccc1 (centres undefined) | 17.3 µM (inactive)
CC1(Sc2ccccc2)CN(Cc2ccccc2)C1=O (centres undefined) | > 100 µM (inactive)
O=C(O)CC1OCC=C2CN3CCC45C6=CC(=O)C(O)=C([N+](=O)[O-])C6=NC4C1C2CC35 (centres undefined) | 40.8 µM (inactive)
O=C(O)c1cccc(S(=O)(=O)NN2C(=O)CSC2c2ccccc2)c1 (centres undefined) | > 100 µM (inactive)
Clc1ccc(OCc2nnc(CCCCCCCCc3nnc(COc4ccc(Cl)cc4Cl)n3Nc3ccccc3)n2Nc2ccccc2)c(Cl)c1 | 19 µM (inactive)
Nc1nnc(N)n1NC(=O)C(=O)Nc1ccc([N+](=O)[O-])cc1 | > 100 µM (inactive)
